Origin of the recorded values: the nanobody polyreactivity screen of Harvey et al. (2022)

Procedure details: yeast display, Sf9 membrane polyspecificity reagent, FACS + sequencing; frameworks hold sequencing errors
Readout label: polyreactivity (PSR sort gate)

QVQLVESGGGLVQAGGSLRLSCAASGSTFYYYAMGWYRQAPGKEREFVAAITWSGGSTYYADSVKGRFTISRDNAKNTVYLQMNSLKPEDTAVYYCAKDQRYYYYGGGDYWGQGTQVTVSS :: low polyreactivity
QVQLVESGGGLVQAGGSLRLSCAASGSIFTEYAMGWYRQAPGKERELVAAISWSGATTYYADSVKGRFTISRDNAKNTVYLQMNSLKPEDTAVYYCAARWANRSYEYWGQGTQVTVSS :: low polyreactivity
QVQLGESGGGVVQAGVSLRLSCAASGSTFTLYAMGWYRQAPGKERELVAAINGAGSTYYADSVKGRFTISRDNAKNTVYLQMNSLKPEDTAVYYCAKDLKYGWSDYWGQGTQVTVSS :: low polyreactivity

---

Procedure details: yeast display, Sf9 membrane polyspecificity reagent, FACS + sequencing; frameworks hold sequencing errors
Readout label: polyreactivity (PSR sort gate)

QVQLVESGGGLVQAGGSLRLSSAASGFISPSYALGWYRPAPGTERELDAAIRSSDGSTYYADSVKGRFTISRDTAMNSVYLQMNSLKPEDTAVYYCAGGGSYYRDDYWGQGTQVTVSS :: low polyreactivity
QVQLVESGGALVQAGGSLSLSCAASGFIFQPYAMGWYRQAPGKERELVAAITSRGGRTYYADSVMGRFTISRDNAKNTVYLQMNSLKPEDSAVYYCNADIYASEYYYWGQGTQVTVSS :: low polyreactivity

---

Procedure details: yeast display, Sf9 membrane polyspecificity reagent, FACS + sequencing; frameworks hold sequencing errors
Readout label: polyreactivity (PSR sort gate)

Example entries and their recorded answers appear below.
QVQLVESGGGLVQAGGSLRLSCAASGITFWVYVKGWYRQAPGKEREFVADISSGAGTTYYADSVKGRFTISRDNAKNTVYLQMNSLKPEDTAVYYFAARRWWPQWYDYWGQGTQVTVSS :: high polyreactivity
QVQLVESGGGLVQAGGSLRLSCAASGSTFSGNAMGWYRQAPGKERELVAAITSSGGSTYYADSVKGRFTISRDNAKNTVYLQMNSLKPEDTAVYYCAADGQYYYGFDYWGQGTQVTVSS :: high polyreactivity
QVQLVESGGGLVQAGGSLRLSCAASGRTFGVYAMGWYRQAPGKERELVADITSGGGTYYADSVKGRFTILRDNAKNTVYLQMNSLKPEDTAVYYCAARKWYYAYDYWGQGTQVTVSS :: high polyreactivity
QVQLVESGGGLVQAGGSLRLSCAASGFTFAVYAMGWYRQAPGKERELVAAISRSGTRTYYADSVKGRFTISRDNAKNTVYLQMNSLKPEDTAVYYCAAPWTQILDYWGQGTQVTVSS :: low polyreactivity
QVQLVESGGGLVQAGGSLRLSCAASGRTFVTYAMGWYRQAPGKERELVAAISASGGSTYYADSVKGRFTISRDNAKNTVYLQMNSLKPEDTAVYYCAKTYFLATPYGYWGQGTQVTVSS :: low polyreactivity

QUERY: Entry "QVQLVESGGGLVQAGGSLRLSCAASGRTLQGYAMGWYRQAPGKERELVAAISRGGGSTYADSVKGRFTISRDNAKNTVYLQMNSLKPEDTAVYYCAAVRGIYGGHYFRYEYWGQGTQVTVSS" : reported polyreactivity (PSR sort gate) = ?
RESULT: high polyreactivity

QUERY: Entry "QVQLVESGGGLVQAGGSLPLRCPASGSIFYQYAMGWYRQAPGKVRELVARIRGSTGTTYYADSVKGRFTISRDNAKNTVYLHMNSLKPEDTAVYYCNAARYQGRSRFDYWGQGSQVTVSS" : reported polyreactivity (PSR sort gate) = ?
RESULT: high polyreactivity

QUERY: Entry "QVQLVESGGGLVQAGGSLRLSCAASGSTFGWYAMGWYREAPGKERELVAAISWLGTSTYYADSVKGRFTISRDNAKNTVYLQLNSLKPEDTAVYFCAADAYDVYYAYYYWGQGTQVTVSS" : reported polyreactivity (PSR sort gate) = ?
RESULT: high polyreactivity

QUERY: Entry "QVQLVESGGGLVQAGGSLRLSCAASGRTFGVNAMGWYRQAPGKERELVAAINWSADRTYYADSVKGRFTISRDNAKNTVYLQMNSLKPEDTAVYYCAVTQRWYWSYYGSDPSQYGYWGQGTQVTVSS" : reported polyreactivity (PSR sort gate) = ?
RESULT: low polyreactivity

QUERY: Entry "QVQLVESGGRLVQAGGSLRLSCAASGSTITPNSMGWYRQAPGKERELVAAITTGGSTKYADSVKGRFTISRDNAKKTVYLQLTSLNPADTAVYYCNTDRGAYFYVIWPPWTYDWGQGTQVTVTS" : reported polyreactivity (PSR sort gate) = ?
RESULT: low polyreactivity

QUERY: Entry "QVQLVESGGGLVQAGGSLRLSCAASGIIFRFYSMGWYRKEPGKERELVAAITSSGGSTYYADSEKGRFTISRDNAKNTVYLQMNSLKPEDSAVYYCATSTGPYRGRFYYWGQGTQVTGSS" : reported polyreactivity (PSR sort gate) = ?
RESULT: high polyreactivity
